Where do these numbers come from? They come from patent US4981861A.

Overview of reported ED50 across a group of compounds:
Test system: gastric acid secretion
Assay: gastric acid secretion-inhibiting activity (4-methylhistamine-stimulated, Heidenhain pouch, oral)
Type: in vivo
Conditions: Canis lupus familiaris, conscious beagle hounds, p.o., 50% inhibition of gastric acid production caused by i.v. 4-methylhistamine, read-out: Gastric acid secretion-inhibition ED 50
A number alone suffices; assume mg/kg.

[
  {
    "Compound": "COc1c(C)cnc(C[S+]([O-])c2nc3cc4c(cc3[nH]2)C(C)(C)C(=O)C4(C)C)c1C (stereo not drawn) [B]",
    "Unit string": "mg/kg",
    "ED50": 5.44
  },
  {
    "Compound": "CON=C1C(C)(C)c2cc3nc([S+]([O-])Cc4nccc(OC)c4C)[nH]c3cc2C1(C)C (stereo not drawn) [H]",
    "Unit string": "mg/kg",
    "ED50": 7.78
  }
]

Pending compound:
Req: Could you tell me which ED50 is on file for COc1ccnc(CSc2nc3cc4c(cc3[nH]2)C(C)(C)C(=O)C4(C)C)c1C [C] ?
Resp: 2.56

----------
Test system: gastric acid secretion
Test: gastric acid secretion-inhibiting activity (4-methylhistamine-stimulated, Heidenhain pouch, oral)
Format: in vivo
Settings: Canis lupus familiaris, conscious beagle hounds, p.o., 50% inhibition of gastric acid production caused by i.v. 4-methylhistamine, read-out: Gastric acid secretion-inhibition ED 50
Labelling field: enter rule met if recorded ED50 is less than 2 mg/kg. Enter rule not met if it equals or exceeds that cut-off.

Consider the following illustrative entries.
[
  {
    "Compound": "CON=C1C(C)(C)c2cc3nc(SCc4nccc(OC)c4C)[nH]c3cc2C1(C)C",
    "Measured target": "gastric acid secretion",
    "Label value": "rule not met"
  },
  {
    "Compound": "COc1ccnc(C[S+]([O-])c2nc3cc4c(cc3[nH]2)C(C)(C)C(=O)C4(C)C)c1C (centres unmarked)",
    "Measured target": "gastric acid secretion",
    "Label value": "rule not met"
  },
  {
    "Compound": "COc1c(C)cnc(C[S+]([O-])c2nc3cc4c(cc3[nH]2)OCO4)c1C (centres unmarked)",
    "Measured target": "gastric acid secretion",
    "Label value": "rule met"
  },
  {
    "Compound": "COc1ccnc(C[S+]([O-])c2nc3cc4c(cc3[nH]2)OCO4)c1C (centres unmarked)",
    "Measured target": "gastric acid secretion",
    "Label value": "rule met"
  }
]

Req: Please state whether ED50 is below 2 mg/kg for `COc1c(C)cnc(CSc2nc3cc4c(cc3[nH]2)C(C)(C)C(=O)C4(C)C)c1C`
Resp: rule not met

----------
Assay: acute toxicity (single oral administration to mice)
Conditions: mouse, in vivo, read-out: Toxicity LD 50
Overview of reported LD50 across a group of compounds:

Known results for compounds:
[
  {
    "Compound": "COc1c(C)cnc(C[S+]([O-])c2nc3cc4c(cc3[nH]2)C(C)(C)C(=O)C4(C)C)c1C (centres unmarked)",
    "LD50": "> 5000 mg/kg"
  },
  {
    "Compound": "CON=C1C(C)(C)c2cc3nc([S+]([O-])Cc4nccc(OC)c4C)[nH]c3cc2C1(C)C (centres unmarked)",
    "LD50": "1250 to 2500 mg/kg"
  }
]

Req: Could you tell me which LD50 is on file for COc1ccnc(C[S+]([O-])c2nc3cc4c(cc3[nH]2)OCO4)c1C (centres unmarked) ?
Resp: > 5000 mg/kg

Req: Could you tell me which LD50 is on file for `COc1ccnc(CSc2nc3cc4c(cc3[nH]2)C(C)(C)C(=O)C4(C)C)c1C` ?
Resp: > 5000 mg/kg

Req: Could you tell me which LD50 is on file for COc1ccnc(C[S+]([O-])c2nc3cc4c(cc3[nH]2)C(C)(C)C(=O)C4(C)C)c1C (centres unmarked) ?
Resp: > 5000 mg/kg

Req: Could you tell me which LD50 is on file for `COc1c(C)cnc(CSc2nc3cc4c(cc3[nH]2)C(C)(C)C(=O)C4(C)C)c1C` ?
Resp: > 5000 mg/kg

Req: Could you tell me which LD50 is on file for COc1c(C)cnc(C[S+]([O-])c2nc3cc4c(cc3[nH]2)OCO4)c1C (centres unmarked) ?
Resp: > 5000 mg/kg

Req: Could you tell me which LD50 is on file for `CON=C1C(C)(C)c2cc3nc(SCc4nccc(OC)c4C)[nH]c3cc2C1(C)C` ?
Resp: 1250 to 2500 mg/kg
